FYI, the data here is from patent US20210214354A1.

Method Summary: in vivo
Study Conditions: both, Sprague-Dawley (SD), rat, iv, 0.08 mg/kg
Measured Endpoint: AUC(0-t) (ng·h/mL)
Quick reminder: number only, in ng·h/mL, skip the unit.

The compound listed as CCOCc1nc2c(N)nc3ccccc3c2n1CC(C)(C)O has a reported AUC(0-t) of 62.5

* * *

Method Summary: TLR7/8 agonist PK study in SD rats (i.v.)
Study Conditions: both, Sprague-Dawley (SD), rat, plasma, iv, 0.08 mg/kg
Measured Endpoint: Vd (L/kg)
Quick reminder: number only, in L/kg, skip the unit.

Examples with their reported Vd follow.
CCS(=O)(=O)Cc1nc2c(N)nc3ccccc3c2n1CC(C)(C)O	1.82
CC(C)(O)Cn1c(COC2CC2)nc2c(N)nc3ccccc3c21	3.13

Now turn to the next compound.
The compound listed as CCSCc1nc2c(N)nc3ccccc3c2n1CC(C)(C)O has a reported Vd of 4.67

* * *

We begin with a simple list: items and their reported MRT last.
Method Summary: TLR7/8 agonist PK study in SD rats (i.v.)
Study Conditions: both, Sprague-Dawley (SD), rat, plasma, iv, 0.08 mg/kg

CC(C)(O)Cn1c(COC2CC2)nc2c(N)nc3ccccc3c21 [Compound 3]	3.15 h
CCS(=O)(=O)Cc1nc2c(N)nc3ccccc3c2n1CC(C)(C)O [Compound 6]	1.28 h

Now turn to the next compound.
The compound listed as CCSCc1nc2c(N)nc3ccccc3c2n1CC(C)(C)O [Compound 4] has a reported MRT last of 1.87 h

* * *

Method Summary: in vivo
Study Conditions: both, Sprague-Dawley (SD), rat, iv, 0.08 mg/kg
Measured Endpoint: C0 (ng/mL)
Quick reminder: number only, in ng/mL, skip the unit.

The compound listed as CCOCc1nc2c(N)nc3ccccc3c2n1CC(C)(C)O [Resiquimod] has a reported C0 of 258

* * *

Method Summary: in vivo
Study Conditions: both, Sprague-Dawley (SD), rat, iv, 0.08 mg/kg
Measured Endpoint: half-life (h)
Quick reminder: number only, in h, skip the unit.

The compound listed as CCOCc1nc2c(N)nc3ccccc3c2n1CC(C)(C)O [Resiquimod] has a reported half-life of 8.46

* * *

Method Summary: in vivo
Study Conditions: both, Sprague-Dawley (SD), rat, iv, 0.08 mg/kg
Measured Endpoint: MRT last
Remember to follow the number with its unit.

The compound listed as CCOCc1nc2c(N)nc3ccccc3c2n1CC(C)(C)O has a reported MRT last of 1.87 h

* * *

Method Summary: in vivo
Study Conditions: both, Sprague-Dawley (SD), rat, iv, 0.08 mg/kg
Measured Endpoint: Vd (L/kg)
Quick reminder: number only, in L/kg, skip the unit.

The molecule listed as CCOCc1nc2c(N)nc3ccccc3c2n1CC(C)(C)O has a reported Vd of 4.67
